Assayed system: human mGluR4 (hmGluR4) (Homo sapiens)
Assay comment: Calcium assay EC50 determination, positive allosteric modulator activity on hmGluR4 transiently over-expressed in HEK-293 cells
Experimental conditions: PAM mode with EC20 glutamate; hmGluR4 in HEK-293 cells; intracellular calcium (Fluo4AM); read-out: mGluR4 positive allosteric modulator activity, half maximal effective concentration (EC50)
pEC50: −log10 of the molar value. Structures can show the parent of a compound that is named as a salt.
Endpoint name: pEC50

1) Cc1cc(CC(=O)N2CCOCC2)cc2c(=O)[nH]c(-c3cc4cccn4cn3)nc12: ≥ 7.00
2) Cc1cc(CC(=O)N2CCCOCC2)cc2c(=O)[nH]c(-c3cc4ccsc4cn3)nc12: ≥ 7.00
3) Cl.O=c1[nH]c(-c2cc3ccsc3cn2)nc2ccc(OCCCc3ccncc3)cc12 [Compound 4, hydrochloride]: 6.00 to 7.00
4) O=c1[nH]c(-c2cc(C(F)(F)F)ccn2)nc2cnc(OCCCc3ccncc3)cc12 [Compound 69, hydrochloride]: 6.00 to 7.00
5) Cc1cc(CCN2CCOCC2)cc2c(=O)[nH]c(-c3cc4cccn4cn3)nc12 [Compound 124, hydrochloride]: ≥ 7.00
6) Cc1cc(OC2CCC(=O)N(C)C2)cc2c(=O)[nH]c(-c3cc4cccn4cn3)nc12 (stereo not shown): ≥ 7.00
7) Cc1cc(CCN2CC3CCC(C2)O3)cc2c(=O)[nH]c(-c3cc(C(F)(F)F)ccn3)nc12.Cl [Compound 162, hydrochloride]: ≥ 7.00

====

Assayed system: human mGluR4 (hmGluR4) (Homo sapiens)
Assay comment: Calcium assay EC50 determination, positive allosteric modulator activity on hmGluR4 transiently over-expressed in HEK-293 cells
Experimental conditions: PAM mode with EC20 glutamate; hmGluR4 in HEK-293 cells; intracellular calcium (Fluo4AM); read-out: mGluR4 positive allosteric modulator activity, half maximal effective concentration (EC50)
Endpoint name: EC50

1) O=c1[nH]c(-c2cc3ccsc3cn2)nc2ccc(OCCCc3ccncc3F)cc12 [Compound 59]: 100 to 1000 nM
2) CCC(=O)N1CC(Oc2cc(C)c3nc(-c4cc5ccsc5cn4)[nH]c(=O)c3c2)C1 [Compound 116]: 100 to 1000 nM
3) Cc1cc(OCCC2CCOCC2)cc2c(=O)[nH]c(-c3cc4ccsc4cn3)nc12 [Compound 79]: 100 to 1000 nM
4) Cc1cc(N2CCC3(CCOCC3)CC2)cc2c(=O)[nH]c(-c3cc4cccn4cn3)nc12 [Compound 108]: ≤ 100 nM
5) CCC(=O)N1CCC(Oc2ccc3nc(-c4cc5sccc5cn4)[nH]c(=O)c3c2)CC1 [Compound 32]: 100 to 1000 nM
6) Cc1cc(CCN2CC3(COC3)C2)cc2c(=O)[nH]c(-c3cc4sccc4cn3)nc12 [Compound 146]: 100 to 1000 nM
7) Cc1cc(CCN2CCC(F)(F)CC2)cc2c(=O)[nH]c(-c3cc(C(F)(F)F)ccn3)nc12.Cl [Compound 165, hydrochloride]: 100 to 1000 nM
8) Cl.O=c1[nH]c(-c2ccc(C(F)(F)F)cn2)nc2ccc(OCCCc3ccncc3)cc12 [Compound 10, hydrochloride]: 100 to 1000 nM

====

Assayed system: human mGluR4 (hmGluR4) (Homo sapiens, UniProt Q14833)
Sequence (Q14833 33-912): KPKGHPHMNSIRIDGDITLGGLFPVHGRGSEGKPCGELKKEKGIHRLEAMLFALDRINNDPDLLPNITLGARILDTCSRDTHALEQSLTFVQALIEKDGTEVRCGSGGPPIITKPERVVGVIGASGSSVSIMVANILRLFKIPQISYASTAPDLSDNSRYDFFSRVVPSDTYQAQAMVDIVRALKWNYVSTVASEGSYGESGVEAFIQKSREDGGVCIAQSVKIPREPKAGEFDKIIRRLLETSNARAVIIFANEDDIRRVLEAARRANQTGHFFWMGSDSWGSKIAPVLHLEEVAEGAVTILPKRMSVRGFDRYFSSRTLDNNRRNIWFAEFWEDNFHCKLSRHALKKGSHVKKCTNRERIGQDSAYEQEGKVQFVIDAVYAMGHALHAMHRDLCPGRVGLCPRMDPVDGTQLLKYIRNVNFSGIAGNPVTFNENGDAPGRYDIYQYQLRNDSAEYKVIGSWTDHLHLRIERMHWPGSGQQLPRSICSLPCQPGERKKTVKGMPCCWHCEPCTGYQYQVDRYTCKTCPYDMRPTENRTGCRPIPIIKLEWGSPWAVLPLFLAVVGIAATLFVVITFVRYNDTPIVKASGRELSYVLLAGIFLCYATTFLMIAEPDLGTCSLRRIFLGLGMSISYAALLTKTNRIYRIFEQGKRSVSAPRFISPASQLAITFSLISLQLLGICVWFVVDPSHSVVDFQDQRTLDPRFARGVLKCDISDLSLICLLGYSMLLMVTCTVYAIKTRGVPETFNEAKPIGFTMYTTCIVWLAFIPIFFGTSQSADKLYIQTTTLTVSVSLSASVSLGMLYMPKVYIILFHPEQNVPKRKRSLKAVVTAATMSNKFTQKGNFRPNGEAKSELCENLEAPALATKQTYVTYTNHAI
Assay comment: Calcium assay EC50 determination, positive allosteric modulator activity on hmGluR4 transiently over-expressed in HEK-293 cells
Experimental conditions: PAM mode with EC20 glutamate; hmGluR4 in HEK-293 cells; intracellular calcium (Fluo4AM); read-out: mGluR4 positive allosteric modulator activity, half maximal effective concentration (EC50)
pEC50: −log10 of the molar value. Where a name gives a salt, the structure may show the parent alone.
Endpoint name: pEC50

1. Cl.O=c1[nH]c(-c2cc(C(F)(F)F)ccn2)nc2ccc(OCCCc3ccncc3)nc12 [Compound 67, hydrochloride]: 6.00 to 7.00
2. Cc1cc(OCCCc2ccncc2)cc2c(=O)[nH]c(-c3cc(C(F)(F)F)ccn3)nc12 [Compound 101, hydrochloride]: 6.00 to 7.00
3. CCC(=O)N1CC[C@H](Oc2cc(C)c3nc(-c4cc5ccsc5cn4)[nH]c(=O)c3c2)C1 (stereo in doubt) [Compound 82-R]: 6.00 to 7.00
4. Cc1cc(CCN2CCN(C)C(=O)C2)cc2c(=O)[nH]c(-c3cc4ccsc4cn3)nc12.Cl [Compound 142, hydrochloride]: 6.00 to 7.00
5. Cc1cc(CN2CCOCC2)cc2c(=O)[nH]c(-c3cc4sccc4cn3)nc12.Cl [Compound 119, hydrochloride]: ≥ 7.00
6. COCCN(C)Cc1cc(C)c2nc(-c3cc4sccc4cn3)[nH]c(=O)c2c1.Cl [Compound 151, hydrochloride]: 6.00 to 7.00
7. Cl.O=c1[nH]c(-c2ccc(F)cn2)nc2ccc(OCCCc3ccncc3)cc12 [Compound 8, hydrochloride]: 5.00 to 6.00

====

Assayed system: UniProt Q14833
Assay comment: Calcium assay EC50 determination, positive allosteric modulator activity on hmGluR4 transiently over-expressed in HEK-293 cells
Experimental conditions: PAM mode with EC20 glutamate; hmGluR4 in HEK-293 cells; intracellular calcium (Fluo4AM); read-out: mGluR4 positive allosteric modulator activity, half maximal effective concentration (EC50)
Where a name gives a salt, the structure may show the parent alone.
Endpoint name: EC50

1) CCC(=O)N1CCN(c2ccc3nc(-c4cc(C(F)(F)F)ccn4)[nH]c(=O)c3c2)CC1: 1 to 10 µM
2) O=c1[nH]c(-c2cc3cccn3cn2)nc2ccc(OCCN3CCOCC3)cc12 [Compound 33, hydrochloride]: > 10 µM
3) O=c1[nH]c(-c2cc3ccsc3cn2)nc2ccc(OCCCc3ccncc3)nc12 [Compound 66, hydrochloride]: 0.1 to 1 µM
4) O=c1[nH]c(-c2cc(Br)ccn2)nc2ccc(OCCCc3ccncc3)cc12: 0.1 to 1 µM
5) CC(=O)N1CCC(Oc2ccc3nc(-c4ccccn4)[nH]c(=O)c3c2)CC1: > 10 µM
6) Cc1cc(CN2CCOCC2)cc2c(=O)[nH]c(-c3cc(C(F)(F)F)ccn3)nc12 [Compound 115, hydrochloride]: ≤ 0.1 µM
7) Cc1cc(N2CCC3(CCOCC3)CC2)nc2c(=O)[nH]c(-c3cc4ccsc4cn3)nc12: 0.1 to 1 µM
8) Cc1cc(O[C@@H]2CCN(C3COC3)C2)cc2c(=O)[nH]c(-c3cc4ccsc4cn3)nc12: 0.1 to 1 µM

====

Assayed system: UniProt Q14833
Assay comment: Calcium assay EC50 determination, positive allosteric modulator activity on hmGluR4 transiently over-expressed in HEK-293 cells
Experimental conditions: PAM mode with EC20 glutamate; hmGluR4 in HEK-293 cells; intracellular calcium (Fluo4AM); read-out: mGluR4 positive allosteric modulator activity, half maximal effective concentration (EC50)
pEC50: −log10 of the molar value. Where a name gives a salt, the structure may show the parent alone.
Entries and their pEC50 values follow.
Endpoint name: pEC50

1. Cc1cc(OC[C@H]2CCOC2)cc2c(=O)[nH]c(-c3cc4ccsc4cn3)nc12: ≥ 7.00
2. CS(=O)(=O)c1ccc(CCCOc2ccc3nc(-c4cc5ccsc5cn4)[nH]c(=O)c3c2)cc1: 6.00 to 7.00
3. Cc1cc(O[C@@H](C)C2CCOCC2)cc2c(=O)[nH]c(-c3cc4ccsc4cn3)nc12: ≥ 7.00
4. Cc1cc(N2CC3(CCOC3)C2)cc2c(=O)[nH]c(-c3cc4ccsc4cn3)nc12: ≥ 7.00
5. O=c1[nH]c(-c2cc3ccsc3cn2)nc2ccc(OCCCc3cocn3)cc12: 6.00 to 7.00
6. Cc1cc(OC2CCC(=O)N(C)C2)cc2c(=O)[nH]c(-c3cc4sccc4cn3)nc12 (stereo not drawn): ≥ 7.00
7. Cc1cc(CN2CCOCC2)cc2c(=O)[nH]c(-c3cc4cccn4cn3)nc12.Cl [Compound 125, hydrochloride]: ≥ 7.00
8. O=c1[nH]c(-c2cc(C(F)(F)F)ccn2)nc2ccc(OCCC3CCOCC3)cc12: 6.00 to 7.00
9. CC(=O)N1CCC(COc2ccc3nc(-c4cc(C(F)(F)F)ccn4)[nH]c(=O)c3c2)CC1: 6.00 to 7.00
10. Cc1cc(CN2CCC(C(=O)N(C)C)CC2)cc2c(=O)[nH]c(-c3cc4sccc4cn3)nc12 [Compound 156, hydrochloride]: ≥ 7.00
11. Cc1cc(OC2CCN(C3COC3)CC2)cc2c(=O)[nH]c(-c3cc(C(F)(F)F)ccn3)nc12: 6.00 to 7.00
12. COC1CCN(Cc2cc(C)c3nc(-c4cc5sccc5cn4)[nH]c(=O)c3c2)CC1 [Compound 152, hydrochloride]: ≥ 7.00
13. Cc1cc(O[C@H]2CCN(C3COC3)C2)cc2c(=O)[nH]c(-c3cc4ccsc4cn3)nc12: ≥ 7.00
14. COC1CCN(CCc2cc(C)c3nc(-c4cc(C(F)(F)F)ccn4)[nH]c(=O)c3c2)CC1.Cl [Compound 166, hydrochloride]: 6.00 to 7.00
15. Cc1cc(N2CCC3(CCOCC3)C2)cc2c(=O)[nH]c(-c3cc4ccsc4cn3)nc12: ≥ 7.00
16. Cc1cc(OCC2CCOCC2)cc2c(=O)[nH]c(-c3cc4ccsc4cn3)nc12: ≥ 7.00
17. O=c1[nH]c(-c2cc3cccn3cn2)nc2ccc(OC3CN(c4ccncn4)C3)cc12: < 5.00
18. Cc1cc(CN2CCOCC2)cc2c(=O)[nH]c(-c3cc4ccsc4cn3)nc12 [Compound 114, hydrochloride]: ≥ 7.00
19. Cc1cc(CN2CCN(C)C(=O)C2)cc2c(=O)[nH]c(-c3cc4sccc4cn3)nc12 [Compound 147, hydrochloride]: ≥ 7.00
20. O=c1[nH]c(-c2cc3ccsc3cn2)nc2c(C3CC3)cc(OCCCc3ccncc3)cc12 [Compound 73, hydrochloride]: 6.00 to 7.00
21. Cc1cc(OC[C@@H]2CCOC2)cc2c(=O)[nH]c(-c3cc4ccsc4cn3)nc12: ≥ 7.00
22. CCc1ccnc(-c2nc3ccc(OCCCc4ccncc4)cc3c(=O)[nH]2)c1 [Compound 16, dihydrochloride]: 5.00 to 6.00
23. Cc1cnc(-c2nc3ccc(OCCCc4ccncc4)cc3c(=O)[nH]2)cn1 [Compound 13, dihydrochloride]: 5.00 to 6.00
24. Cc1nc(-c2nc3ccc(OCCCc4ccncc4)cc3c(=O)[nH]2)co1 [Compound 22, hydrochloride]: 5.00 to 6.00
25. COc1cnccc1CCCOc1ccc2nc(-c3cc4ccsc4cn3)[nH]c(=O)c2c1.Cl [Compound 62, hydrochloride]: 6.00 to 7.00
26. Cc1cc(CCN2CCN(C)C(=O)C2)cc2c(=O)[nH]c(-c3cc4sccc4cn3)nc12.Cl [Compound 143, hydrochloride]: ≥ 7.00
27. Cc1cc(OCC2CCOC2)cc2c(=O)[nH]c(-c3cc(C(F)(F)F)ccn3)nc12 (stereo not drawn): ≥ 7.00
28. Cc1cc(CN2CCN(C)CC2)cc2c(=O)[nH]c(-c3cc4ccsc4cn3)nc12 [Compound 132, dihydrochloride]: 5.00 to 6.00
29. Cc1cc(O[C@@H](C)C2CCOCC2)cc2c(=O)[nH]c(-c3cc(C(F)(F)F)ccn3)nc12: 6.00 to 7.00
30. Cc1cc(OC2CCN(C3COC3)CC2)cc2c(=O)[nH]c(-c3cc4cccn4cn3)nc12: ≥ 7.00
